Biological target: Progesterone receptor (Homo sapiens, UniProt P06401)
Sequence (P06401 whole entry): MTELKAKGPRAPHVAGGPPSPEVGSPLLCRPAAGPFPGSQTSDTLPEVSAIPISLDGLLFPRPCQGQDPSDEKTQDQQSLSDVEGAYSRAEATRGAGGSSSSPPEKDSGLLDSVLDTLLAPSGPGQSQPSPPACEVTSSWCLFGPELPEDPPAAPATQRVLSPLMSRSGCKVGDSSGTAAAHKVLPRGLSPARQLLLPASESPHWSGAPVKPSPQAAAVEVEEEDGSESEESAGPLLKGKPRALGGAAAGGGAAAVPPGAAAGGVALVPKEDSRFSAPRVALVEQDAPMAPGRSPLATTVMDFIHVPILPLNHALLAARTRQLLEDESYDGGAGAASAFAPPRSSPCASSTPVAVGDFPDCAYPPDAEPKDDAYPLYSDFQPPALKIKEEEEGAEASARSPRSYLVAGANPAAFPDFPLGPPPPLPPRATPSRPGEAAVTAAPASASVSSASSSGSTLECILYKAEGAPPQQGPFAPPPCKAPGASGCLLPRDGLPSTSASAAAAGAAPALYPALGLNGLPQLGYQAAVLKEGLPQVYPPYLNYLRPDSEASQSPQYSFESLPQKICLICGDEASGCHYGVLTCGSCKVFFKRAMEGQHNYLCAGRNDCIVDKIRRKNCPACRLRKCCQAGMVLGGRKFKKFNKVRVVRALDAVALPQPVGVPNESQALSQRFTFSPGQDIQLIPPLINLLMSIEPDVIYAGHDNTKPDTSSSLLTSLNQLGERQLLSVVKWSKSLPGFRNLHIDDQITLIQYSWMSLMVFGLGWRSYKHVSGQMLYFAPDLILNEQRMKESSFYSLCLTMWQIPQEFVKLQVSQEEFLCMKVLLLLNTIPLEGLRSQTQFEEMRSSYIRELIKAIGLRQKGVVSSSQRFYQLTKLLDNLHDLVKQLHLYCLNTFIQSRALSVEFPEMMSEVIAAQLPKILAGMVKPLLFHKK
Assay: Antagonist activity at progesterone receptor in human T47D cells assessed as inhibition of progesterone-induced alkaline phosphatase activity
Format: functional, cell-based
Could you please mark YES for values of IC50 below 3 µM and NO for values at or above it?

>  <SMILES_REPR>
C=CCC1(CC=C)C(=O)N(c2ccc(C#N)cc2)C(=O)c2ccccc21

>  <TESTED_SYSTEM>
Progesterone receptor (Homo sapiens, UniProt P06401)

>  <LABEL_VALUE>
YES

$$$$
>  <SMILES_REPR>
CC1(C)C(=O)N(c2cccc(Cl)c2)C(=O)c2ccccc21

>  <TESTED_SYSTEM>
Progesterone receptor (Homo sapiens, UniProt P06401)

>  <LABEL_VALUE>
NO

$$$$
>  <SMILES_REPR>
O=C1c2ccccc2C2(CCCCC2)C(=O)N1c1ccc(Cl)cc1

>  <TESTED_SYSTEM>
Progesterone receptor (Homo sapiens, UniProt P06401)

>  <LABEL_VALUE>
YES

$$$$

Challenge: Decide: IC50 of Cn1c(=O)n(-c2ccccc2)c(=O)c2ccccc21 strictly below 3 µM?
Response given: NO

Challenge: Problem: For the compound Cc1ccc(N2C(=O)c3ccccc3C(C)(C)C2=O)cc1 , is IC50 under 3 µM?
Response given: NO

Challenge: Dear colleague, could you confirm whether IC50 of N#Cc1ccc(N2C(=O)c3ccccc3C3(CCCC3)C2=O)cc1 falls below 3 µM? Thanks.
Response given: YES

Challenge: Please state whether IC50 is below 3 µM for CC1(C)C(=O)N(c2ccc(C#N)cc2)C(=O)c2ccccc21
Response given: YES

Challenge: # TODO verify IC50 < 3 µM strictly for this compound: CC1(C)C(=O)N(c2cccc(F)c2)C(=O)c2ccccc21
Response given: NO

Challenge: Hi there! Is IC50 for CCC1(CC)C(=O)N(c2ccc(C#N)cc2)C(=O)c2ccccc21 below 3 µM, do you know?
Response given: YES

Challenge: Strictly below 3 µM: is that where IC50 of C=CCC1(CC=C)C(=O)N(c2ccc(Cl)cc2)C(=O)c2ccccc21 sits?
Response given: YES

Challenge: Check if IC50 falls below 3 µM for N#Cc1ccc(N2C(=O)c3ccccc3C3(CCCCC3)C2=O)cc1 .
Response given: YES

Challenge: Threshold test, IC50 < 3 µM: CC1(C)C(=O)N(c2ccccc2Cl)C(=O)c2ccccc21
Response given: NO

Challenge: Check if IC50 falls below 3 µM for CC1(C)C(=O)N(c2ccccc2)C(=O)c2ccccc21 .
Response given: NO

###

Target: Progesterone receptor (Homo sapiens) (UniProt P06401)
Test: Antagonist activity at progesterone receptor in human T47D cells assessed as inhibition of progesterone-induced alkaline phosphatase activity at 100 uM
Type: functional, cell-based
MEASURED_PROPERTY: inhibition (%)
Write it as a number; the unit % goes unstated.

Solved entries (count: 2):
>  <MOLECULE>
O=C1CC(O)C(N2C(=O)c3ccccc3C2=O)C(=O)N1 (stereo not drawn)

>  <UOM>
%

>  <EXPERIMENTAL_VALUE>
30.6

$$$$
>  <MOLECULE>
O=C1CC(O)C(N2C(=O)c3ccc(O)cc3C2=O)C(=O)N1 (stereo not drawn)

>  <UOM>
%

>  <EXPERIMENTAL_VALUE>
29.4

$$$$

Challenge: Return reported inhibition. Input molecule: O=C1CCC(N2C(=O)c3cccc(O)c3C2=O)C(=O)N1O (stereo not drawn)
Response given: 30.7

###

Target: Progesterone receptor (Homo sapiens, UniProt P06401)
Sequence (P06401 whole entry): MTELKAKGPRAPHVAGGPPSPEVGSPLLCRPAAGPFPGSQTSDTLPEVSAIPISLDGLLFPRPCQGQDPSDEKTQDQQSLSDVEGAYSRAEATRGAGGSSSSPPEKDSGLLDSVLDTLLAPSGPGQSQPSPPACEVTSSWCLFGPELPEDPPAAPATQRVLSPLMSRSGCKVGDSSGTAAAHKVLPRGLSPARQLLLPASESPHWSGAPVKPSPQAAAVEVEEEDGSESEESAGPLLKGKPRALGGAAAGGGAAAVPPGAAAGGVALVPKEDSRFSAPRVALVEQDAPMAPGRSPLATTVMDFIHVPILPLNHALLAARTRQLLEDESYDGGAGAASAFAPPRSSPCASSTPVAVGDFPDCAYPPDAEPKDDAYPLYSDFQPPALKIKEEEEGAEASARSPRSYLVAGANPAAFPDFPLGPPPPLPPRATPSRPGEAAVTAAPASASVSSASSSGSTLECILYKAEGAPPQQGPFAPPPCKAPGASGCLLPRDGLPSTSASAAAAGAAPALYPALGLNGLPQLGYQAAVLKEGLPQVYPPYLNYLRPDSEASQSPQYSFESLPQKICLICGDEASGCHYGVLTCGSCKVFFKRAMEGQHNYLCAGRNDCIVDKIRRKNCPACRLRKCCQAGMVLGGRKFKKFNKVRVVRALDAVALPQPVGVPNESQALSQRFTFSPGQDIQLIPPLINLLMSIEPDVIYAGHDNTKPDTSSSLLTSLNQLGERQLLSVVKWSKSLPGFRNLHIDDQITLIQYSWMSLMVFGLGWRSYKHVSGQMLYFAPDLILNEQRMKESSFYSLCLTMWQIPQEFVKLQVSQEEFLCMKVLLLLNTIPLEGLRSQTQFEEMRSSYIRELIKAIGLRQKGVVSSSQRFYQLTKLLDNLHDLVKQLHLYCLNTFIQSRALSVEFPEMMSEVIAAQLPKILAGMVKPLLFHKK
Test: Antagonist activity at progesterone receptor in human T47D cells assessed as inhibition of progesterone-induced alkaline phosphatase activity
Format: functional, cell-based
Entries and their measured IC50 follow.
The reply should be a number in µM, with the unit left off.

>  <SMILES_REPR>
CCCn1c(=O)n(-c2ccccc2)c(=O)c2ccccc21

>  <TESTED_SYSTEM>
Progesterone receptor (Homo sapiens, UniProt P06401)

>  <MEASURED_PROPERTY>
IC50

>  <UOM>
µM

>  <EXPERIMENTAL_VALUE>
23

$$$$

Challenge: Output IC50 of CCn1c(=O)n(-c2ccccc2)c(=O)c2ccccc21
Response given: 30

Challenge: Give IC50 for CC1(C)C(=O)N(c2ccc(F)cc2)C(=O)c2ccccc21
Response given: 6.8

Challenge: Supply reported IC50 belonging to this compound: CCCC1(CCC)C(=O)N(c2ccc(Cl)cc2)C(=O)c2ccccc21
Response given: 1.1

Challenge: Determine from records and report IC50 for CC1(C)C(=O)N(c2ccccc2F)C(=O)c2ccccc21
Response given: 13

Challenge: // fetch IC50 given entry COc1ccc(N2C(=O)c3ccccc3C(C)(C)C2=O)cc1
Response given: 11

Challenge: Give the reported value of IC50 for this record: O=C1c2ccccc2C2(CCCC2)C(=O)N1c1ccc(Cl)cc1
Response given: 1.3

Challenge: Return IC50 (reported value) for this compound: CCCC1(CCC)C(=O)N(c2ccc(C#N)cc2)C(=O)c2ccccc21
Response given: 0.12

Challenge: Name the recorded IC50 of the item CC1(C)C(=O)N(c2ccc(Cl)cc2)C(=O)c2ccccc21 in your answer.
Response given: 1.3

Challenge: Using known records, supply IC50 for CCC1(CC)C(=O)N(c2ccc(Cl)cc2)C(=O)c2ccccc21
Response given: 0.25

Challenge: Assign IC50 to the following record: O=c1c2ccccc2n(Cc2ccccc2)c(=O)n1-c1ccccc1
Response given: 11
